Entry source: BindingDB's records for PubMed 34147747

assay: Binding affinity to CRF (unknown origin) receptor assessed as inhibition constant
measure-name: pKi
The meaning of pKi here: minus log10 of the concentration in molar units.

[ask] If you can, please state the reported pKi value of CCCC(CCC)c1c(CC)nn2c(-c3cc(OC)c(OC)cc3Cl)nc(C)nc12 .
[reply] 9.15

====

In this section we review reported Ki values for a set of compounds.
target: corticotropin-releasing factor receptor (rat); test: Binding affinity to rat CRF receptor assessed as inhibition constant
Number only, in nM; omit the unit.

Completed entries (count: 3):
{"columns": ["compound", "Ki, nM"],
 "data": [
  ["CCCC(CCC)c1c(CC)nn2c(-c3ccc(Cl)cc3Cl)nc(C)nc12", 1],
  ["CCCC(C)c1c(CC)nn2c(-c3cc(OC)c(OC)cc3Cl)nc(C)nc12 (centres undefined)", 2.6],
  ["CCCC(COC)c1c(CC)nn2c(-c3cc(OC)c(OC)cc3Cl)nc(C)nc12 (centres undefined)", 2]
]}

[ask] If you can, please state the reported Ki value of CCCC(COC)c1c(CC)nn2c(-c3ccc(Cl)cc3Cl)nc(C)nc12 (centres undefined) .
[reply] 1.4
